Data provenance is patent US20210403552A1.

- TARGET SYSTEM: human CLDN18.2 (human)
- EXPERIMENTAL DETAILS: cell-based or functional assay
ASSAY METRIC: ADCC EC50, KATO-III target cells, human PBMC effectors (mg/L)

# BINDER, REPORTED RESULT
measured = [
    ("44F7-chIgG1 (antibody, V domains shown, human-mouse chimeric antibody, human IgG1/kappa constant regions; also called parental chimeric antibody) VH: QVQLQQSGAELVRPGASVKMSCKASGYTFTSYNMHWVKQAPRQGLEWIGTIYPGNGDTSYNQKFKGKATLTVDKSSSTAYMQLSSLTSEDSAVYFCARGGYYGNSLDYWGQGTTLTVSS VL: DIQMTQSPSSLTVTAGEKVTMSCKSSQSLLNSGNQKNYLTWYQQKPGQPPKLLIYWASTRESGVPDRFTGSGSGTDFTLTISSVQAEDLAVYYCQNAYYYPFTFGSGTKLEIKR", 0.0117),
]
